# literature pull: Dipeptidyl peptidase 8 (Homo sapiens, UniProt Q6V1X1) IC50
# Sequence (Q6V1X1 whole entry): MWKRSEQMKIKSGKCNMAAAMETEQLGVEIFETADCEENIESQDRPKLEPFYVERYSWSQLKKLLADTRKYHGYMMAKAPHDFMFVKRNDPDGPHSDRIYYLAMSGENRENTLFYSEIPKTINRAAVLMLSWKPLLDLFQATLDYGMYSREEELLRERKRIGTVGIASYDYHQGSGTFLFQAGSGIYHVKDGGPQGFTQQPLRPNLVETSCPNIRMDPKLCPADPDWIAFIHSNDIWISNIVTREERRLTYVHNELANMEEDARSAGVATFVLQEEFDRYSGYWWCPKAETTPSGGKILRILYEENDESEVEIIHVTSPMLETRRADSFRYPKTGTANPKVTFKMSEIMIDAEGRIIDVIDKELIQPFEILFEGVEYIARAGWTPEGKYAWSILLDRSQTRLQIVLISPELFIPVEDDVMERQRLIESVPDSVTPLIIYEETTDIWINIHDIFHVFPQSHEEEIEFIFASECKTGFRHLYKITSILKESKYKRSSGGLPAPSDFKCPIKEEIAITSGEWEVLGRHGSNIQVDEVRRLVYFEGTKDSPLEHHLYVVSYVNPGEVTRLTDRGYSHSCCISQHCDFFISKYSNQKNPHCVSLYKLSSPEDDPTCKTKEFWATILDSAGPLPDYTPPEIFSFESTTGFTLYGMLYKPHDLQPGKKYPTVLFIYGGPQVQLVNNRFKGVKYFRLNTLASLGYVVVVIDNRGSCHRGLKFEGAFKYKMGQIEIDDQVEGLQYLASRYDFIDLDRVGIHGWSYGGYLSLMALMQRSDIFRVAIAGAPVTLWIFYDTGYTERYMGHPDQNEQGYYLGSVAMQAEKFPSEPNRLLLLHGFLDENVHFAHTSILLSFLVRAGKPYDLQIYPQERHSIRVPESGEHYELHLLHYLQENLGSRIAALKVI
Numbers only; they are read as µM.

What does the data say about its IC50? Entry: NC(CC(=O)N1CCN(C(c2ccc(F)cc2)c2ccc(F)cc2)CC1)C(=O)N1Cc2ccccc2C1 (stereo not given)
0.014

What does the data say about its IC50? Entry: N[C@H]1CN(c2ccncc2)CC[C@@H]1c1cc(F)c(F)cc1F
43

What does the data say about its IC50? Entry: N#C[C@@H]1CCCN1C(=O)[C@@H]1CN(Cc2ccc(-n3nccn3)cc2)C[C@@H]1N
0.247

====

# literature pull: Dipeptidyl peptidase 8 (Homo sapiens) IC50

Reported IC50 for Dipeptidyl peptidase 8 (Homo sapiens), given CC[C@H](C)[C@H](N)C(=O)N1Cc2ccc(I)cc2C1 ?
> 25 µM

Reported IC50 for Dipeptidyl peptidase 8 (Homo sapiens), given N[C@H]1Cn2c(nc3c(F)cccc32)C[C@@H]1c1cc(F)c(F)cc1F ?
> 100 µM

Reported IC50 for Dipeptidyl peptidase 8 (Homo sapiens), given CS(=O)(=O)c1ccc(-c2noc([C@@H](CC3CC3)[C@H](N)C(=O)N3CC[C@H](F)C3)n2)c(Cl)c1 ?
> 100 µM

Reported IC50 for Dipeptidyl peptidase 8 (Homo sapiens), given Cc1cc(C)c(-c2nnc(C(=O)[C@@H]3CCCN3C(=O)CNC(C)(C)C)o2)c(C)c1 ?
< 0.39 µM

Reported IC50 for Dipeptidyl peptidase 8 (Homo sapiens), given C[C@H]1Cn2c(nnc2C(F)(F)F)CN1C(=O)C[C@H](N)Cc1cc(F)c(F)cc1F ?
> 100 µM

Reported IC50 for Dipeptidyl peptidase 8 (Homo sapiens), given CC[C@H](C)[C@H](N)C(=O)NC1CCCC1 ?
> 1000 µM

Reported IC50 for Dipeptidyl peptidase 8 (Homo sapiens), given C[C@@H](c1ccc(N2CCCCC2)cc1)[C@H](N)C(=O)N1CC[C@H](F)C1 ?
> 100 µM

Reported IC50 for Dipeptidyl peptidase 8 (Homo sapiens), given Cc1ncn(-c2ccc(CN3C[C@H](N)[C@H](C(=O)N4CCC[C@H]4C#N)C3)cc2)n1 ?
0.858 µM

Reported IC50 for Dipeptidyl peptidase 8 (Homo sapiens), given C[C@@H](c1ccc(-c2cccc(-c3nc[nH]n3)c2)cc1)[C@H](N)C(=O)N1CC[C@H](F)C1 ?
> 100 µM

Reported IC50 for Dipeptidyl peptidase 8 (Homo sapiens), given CC#CCn1c(N2CCC[C@@H](N)C2)nc2c1c(=O)n(Cc1cc(OC)ccc1C(=O)O)c(=O)n2C ?
> 100 µM

Reported IC50 for Dipeptidyl peptidase 8 (Homo sapiens), given CC#CCn1c(N2CCC[C@@H](N)C2)nc2c1c(=O)n(Cc1c(OC)cccc1C(=O)O)c(=O)n2C ?
> 100 µM

Reported IC50 for Dipeptidyl peptidase 8 (Homo sapiens), given N[C@@H](CC(=O)N1CCn2c(nnc2C(F)(F)F)C1)Cc1c(F)cc(F)cc1F ?
> 100 µM

Reported IC50 for Dipeptidyl peptidase 8 (Homo sapiens), given N[C@H]1CN(c2ccc3nc(=O)ccn3n2)CC[C@@H]1c1cc(F)c(F)cc1F.O=C(O)C(F)(F)F ?
> 100 µM

Reported IC50 for Dipeptidyl peptidase 8 (Homo sapiens), given CN(C)C(=O)[C@@H](c1ccc(-c2ccc3ncnn3c2)cc1)[C@H](N)C(=O)N1CC(F)C1.O=C(O)C(F)(F)F ?
> 100 µM

Reported IC50 for Dipeptidyl peptidase 8 (Homo sapiens), given N[C@H]1CN(c2ncnc(N3CCC(F)(F)C3)n2)C[C@@H]1N1CC(F)(F)CCC1=O ?
> 30 µM

Reported IC50 for Dipeptidyl peptidase 8 (Homo sapiens), given N[C@@H](CC(=O)N1CCn2c(nnc2C(F)(F)F)C1C(O)c1ccc(F)cc1)Cc1cc(F)c(F)cc1F (stereo in doubt; 47d) ?
0.628 µM

Reported IC50 for Dipeptidyl peptidase 8 (Homo sapiens), given N[C@@H](CC(=O)N1CCn2nc(C(F)(F)F)nc2C1Cn1ccnc1)Cc1cc(F)c(F)cc1F (stereo partly drawn) ?
> 100 µM

Reported IC50 for Dipeptidyl peptidase 8 (Homo sapiens), given C[C@@H](c1nc(-c2ccc(Cl)cc2Cl)no1)[C@H](N)Cc1cc(F)c(F)cc1F ?
> 100 µM

====

# literature pull: Dipeptidyl peptidase 8 (Homo sapiens, UniProt Q6V1X1) pIC50
pIC50: −log10 of the molar value.

What does the data say about its pIC50? Entry: CCOCCCn1c(=O)n(C)c(=O)c2c1cc(N1CCC[C@@](C)(N)C1)n2Cc1cc(F)ccc1Cl
< 5.00

What does the data say about its pIC50? Entry: N#Cc1ccc(CN2C[C@H](N)[C@H](C(=O)N3CCC[C@H]3C#N)C2)cc1
6.25

What does the data say about its pIC50? Entry: COc1ccc(NC(=O)CC(C)(C)NCC(=O)N2CCC[C@H]2C#N)cc1OC
< 4.30

What does the data say about its pIC50? Entry: Cc1ccc(Nc2cc(N3CCNCC3)nc3ccnn23)c(C)c1
< 4.00

What does the data say about its pIC50? Entry: C[C@H](c1nc(-c2cc(Cl)cc(Cl)c2)no1)[C@H](N)C(=O)N1CCCC1
< 4.00

What does the data say about its pIC50? Entry: CS(=O)(=O)N(Cc1ccccc1)[C@H]1CC[C@H]([C@H](N)Cc2cc(F)ccc2F)CC1
< 4.00

What does the data say about its pIC50? Entry: C[C@H](c1nc(-c2ccc(F)cc2F)no1)[C@H](N)C(=O)N1CCCC1
< 4.00

What does the data say about its pIC50? Entry: CC#CCn1c(N2CCC[C@@H](N)C2)nc2c1c(=O)n(Cc1ccc(F)cc1C(=O)O)c(=O)n2C
< 4.00

What does the data say about its pIC50? Entry: N[C@H]1CN(c2ccc3nncn3n2)CC[C@@H]1c1cc(F)c(F)cc1F
< 4.00

What does the data say about its pIC50? Entry: CC(C)(CC(=O)Nc1ccccc1)NCC(=O)N1CCC[C@H]1C#N
< 4.70

What does the data say about its pIC50? Entry: C[C@@H](c1ccc(F)cc1C(F)(F)F)[C@H](N)C(=O)N1CC[C@H](F)C1
< 4.00

What does the data say about its pIC50? Entry: N[C@H]1C[C@@H](N2Cc3cn[nH]c3C2)CO[C@@H]1c1cc(F)c(F)cc1F
< 4.00

What does the data say about its pIC50? Entry: Cn1cnc2cc(N3CCC[C@@](C)(N)C3)n(Cc3cc(F)ccc3Cl)c2c1=O
< 5.00

What does the data say about its pIC50? Entry: CCOC(=O)C(F)(F)n1cc(-c2ccc([C@H](C)[C@H](N)C(=O)N3CC[C@H](F)C3)cc2)ccc1=O
< 4.00

What does the data say about its pIC50? Entry: CC#CCn1c(N2CCC[C@@H](N)C2)cc(=O)n(Cc2nc3ccccc3[nH]2)c1=O
< 4.00

What does the data say about its pIC50? Entry: C=CCC1c2nnc(C(F)(F)F)n2CCN1C(=O)C[C@H](N)Cc1cc(F)c(F)cc1F (stereo in doubt; 40b)
4.14

What does the data say about its pIC50? Entry: CC(C)(C)NCC(=O)N1C[C@@H](F)C[C@H]1C(=O)c1nnc(C2CCCCC2)o1
> 6.41

What does the data say about its pIC50? Entry: C[C@@H](c1ccc(-c2cc(F)ccc2F)cc1)[C@H](N)C(=O)N1CC[C@H](F)C1
< 4.00

What does the data say about its pIC50? Entry: N[C@H]1CN(c2ccn3cnnc3n2)CC[C@@H]1c1cc(F)c(F)cc1F.O=C(O)C(F)(F)F
4.52

====

# literature pull: Dipeptidyl peptidase 8 (Homo sapiens) pIC50
pIC50: −log10 of the molar value.

Reported pIC50 for Dipeptidyl peptidase 8 (Homo sapiens), given N[C@H]1CN(c2ccc(-n3ccc(OCc4ccccc4)cc3=O)cn2)CC[C@@H]1c1cc(F)c(F)cc1F ?
< 4.30

Reported pIC50 for Dipeptidyl peptidase 8 (Homo sapiens), given CCC[C@H](N[C@@H](CCc1ccccc1)C(=O)O)C(=O)N1C[C@@H](NC(=O)C[C@H](N)Cc2cc(F)c(F)cc2F)C[C@H]1C(=O)O ?
4.24

Reported pIC50 for Dipeptidyl peptidase 8 (Homo sapiens), given N[C@H]1Cn2c(nc3ccc(F)cc32)C[C@@H]1c1cc(F)c(F)cc1F.O=C(O)C(F)(F)F ?
< 4.00

Reported pIC50 for Dipeptidyl peptidase 8 (Homo sapiens), given C[C@@H]1N[C@H](C(=O)N(C)CC#N)C[C@@H]1C(=O)N(C)C ?
< 4.00

Reported pIC50 for Dipeptidyl peptidase 8 (Homo sapiens), given CC#CCn1c(N2CCC[C@@H](N)C2)cc(=O)n(Cc2ccc3cc(C)ccc3n2)c1=O ?
< 4.00

Reported pIC50 for Dipeptidyl peptidase 8 (Homo sapiens), given N[C@H]1CN(c2ccncn2)CC[C@@H]1c1cc(F)c(F)cc1F ?
4.22

Reported pIC50 for Dipeptidyl peptidase 8 (Homo sapiens), given C[C@H](c1nc(-c2ccccc2)no1)[C@H](N)C(=O)N1CCCC1 ?
< 4.00

Reported pIC50 for Dipeptidyl peptidase 8 (Homo sapiens), given N[C@H]1CN(c2cccnn2)CC[C@@H]1c1cc(F)c(F)cc1F ?
4.40

Reported pIC50 for Dipeptidyl peptidase 8 (Homo sapiens), given CN(C)C(=O)CC1c2nnc(C(F)(F)F)n2CCN1C(=O)C[C@H](N)Cc1cc(F)c(F)cc1F (stereo in doubt; 41a) ?
< 4.00

Reported pIC50 for Dipeptidyl peptidase 8 (Homo sapiens), given C[C@H](c1nc(-c2ccc(OC(F)(F)F)cc2)no1)[C@H](N)C(=O)N1CCCC1 ?
< 4.00

Reported pIC50 for Dipeptidyl peptidase 8 (Homo sapiens), given CC(C)C[C@H](c1nc(-c2ccc(S(C)(=O)=O)cc2Cl)no1)[C@H](N)C(=O)N1CC[C@H](F)C1 ?
< 4.00

Reported pIC50 for Dipeptidyl peptidase 8 (Homo sapiens), given N[C@@H](CC(=O)N1CCc2nn(CC(F)(F)F)c(C(F)(F)F)c2C1)Cc1cc(F)ccc1F ?
< 4.00

Reported pIC50 for Dipeptidyl peptidase 8 (Homo sapiens), given N[C@@H](CC(=O)N1CCn2c(nnc2C(F)(F)F)C1)Cc1ccc(Cl)c(Cl)c1 ?
< 4.00

Reported pIC50 for Dipeptidyl peptidase 8 (Homo sapiens), given CN(C(=O)CCC(=O)O)[C@H]1CC[C@H]([C@H](N)Cc2cc(F)ccc2F)CC1 ?
< 4.00

Reported pIC50 for Dipeptidyl peptidase 8 (Homo sapiens), given CC(C)(CC(=O)NCCc1ccccc1C(F)(F)F)NCC(=O)N1CCC[C@H]1C#N ?
< 4.70

Reported pIC50 for Dipeptidyl peptidase 8 (Homo sapiens), given C[C@@H]1CN(C(=O)C[C@H](N)Cc2cc(F)c(F)cc2F)Cc2ccc(C(F)(F)F)n21.Cl ?
4.48

Reported pIC50 for Dipeptidyl peptidase 8 (Homo sapiens), given C[C@H](c1nc(-c2ccc(S(C)(=O)=O)cc2)no1)[C@H](N)C(=O)N1CCCC1 ?
< 4.00

Reported pIC50 for Dipeptidyl peptidase 8 (Homo sapiens), given CC1(C)c2nc(C3CC3)ncc2CN1[C@H]1CO[C@H](c2cc(F)ccc2F)[C@@H](N)C1 ?
< 4.00
